Tested on: sulphur-containing amino acids (HCY, CYS, CYSGLY, GLU) in whole blood
Assay: Stabilization of sulphur-containing amino acids (HCY, CYS, CYSGLY, GLU) together in whole blood samples
Assay type: cell-based
Settings: substance used alone, samples at room temperature
quantity_measured: stabilization of the sulphur-containing amino acids (in words)

| molecule | reading |
| --- | --- |
| O=C(O)CC(O)(CC(=O)O)C(=O)O [citric acid] | no stabilization |
| O=C(O)CN(CCN(CC(=O)O)CC(=O)O)CC(=O)O [Na-EDTA, ethylenediamine tetraacetic acid] | no stabilization |

# credit: patent US20040138169A1
